Attribution: the supplement of paper PMC10567573

Each record here notes measured protein stability index.
- PROTOCOL: protein stability index of a GFP-peptide fusion (GPS, HEK-293T) (PSI 1-6); higher = more stable;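 further: 24-mer peptide tiles fused after GFP, lentivirally expressed, FACS-sorted into six equal bins by GFP/DsRed ratio, decoded by Illumina sequencing, PSI is the read-weighted mean bin number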
- TEST SETTINGS: treatment: MLN4924 1 uM, 8 h; c terminus: a fixed tail appended

Would you please look over these solved cases?
INSERT INTO results (monomer_sequence, result) VALUES
  ('ICKSDAPTGDVLLDEALKHVKETQ [GOLPH3]', 4.72),
  ('DWFTSYVKNVVSGGFPIIRDQIFR [FBXO3]', 2.41),
  ('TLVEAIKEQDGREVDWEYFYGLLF [DFFB]', 2.69);

Record request: protein stability index value, item RRWKLQVLDLRKNSHQDFWTVWSG [PRAME] 2.07

Consider next the sequence QARRQQVKQYLSTTLGPKLASQAL [TFE3] in the same way. 2.9

* * *

- PROTOCOL: protein stability index of a GFP-peptide fusion (GPS, HEK-293T) (PSI 1-6); higher = more stable
- TEST SETTINGS: treatment: DMSO; c terminus: a fixed tail appended
Please enter class 1 where protein stability index is greater than or equal to 3, and class 0 where it is lower.

As a guide, the following entries are already answered.
INSERT INTO results (monomer_sequence, assigned_class) VALUES
  ('ASEYCPGKLSWGTMARALGRFKLS [WDR88]', 'class 0'),
  ('PTYKGLLMSLQNQLKESKSKIDAL [CEP70]', 'class 0'),
  ('LAMGTVSLGQLPLPPIPHVFSAGT [PLAGL1]', 'class 0'),
  ('WSGEVKDKNVQVVELPIVDSLHPR [FUT8]', 'class 1'),
  ('EMQIENLKEELAYLKKNHEEEMNA [KRT17]', 'class 1'),
  ('PFIVFGATGLTSGLLSLLLPETLN [SLC22A15]', 'class 1'),
  ('SVAVAARHAQTISGHALRILIVDW [HDAC6]', 'class 0'),
  ('TFKSFEDRVGTIKSKVVGDRENGS [TPD52L2]', 'class 1'),
  ('MFIPETKGCSLEQISMELAKVNYV [SLC2A12]', 'class 0'),
  ('VRKKRFRKTQKKVPDVKEMEKSSF [TAF7L]', 'class 1');

Tell me whether protein stability index is at least 3 here: FSKASDSLQLVFGIELMEVDPIGH [MAGEA6] class 0

Next sequence up: AGTPGYLSPEVLRKDPYGKPVDMW [CAMK2D] class 1

* * *

Measured protein stability index values are reported for all entries that follow.
- PROTOCOL: protein stability index of a GFP-peptide fusion (GPS, HEK-293T) (PSI 1-6); higher = more stable
- TEST SETTINGS: treatment: MLN4924 1 uM, 8 h; c terminus: a fixed tail appended
// return a plain number; no unit text

INSERT INTO assay_data (monomer_sequence, measurement_type, result_number) VALUES
  ('PEWDTVTPEAKDLINKMLTINPSK [CAMK2A]', 'protein stability index', 5.03),
  ('WCLVQICEKYLPGYYSEKLEAIQL [TBC1D10A]', 'protein stability index', 3.57),
  ('LLWSDPADNKIVSHLLVAEPEKIY [ESRRG]', 'protein stability index', 2.55);

Fill in: protein stability index of LPSDGDHQVPTTAGNKAALLDQIR [WASL] is ___ 4.1

Let us now turn to HPFYHCLVAEVPKEHWTPEGHSIV [SAT1] 2.54

Also, YLKSCRRMKKNGMEMTRPTPPHLT [NOL4L] please. 2.96

Would you kindly repeat that for YKREILERVDGRRLVYKFGKNSSG [ELF3] ? 3.21
